# system.tested: rNHE3 (Rattus norvegicus, UniProt P26433)
# Construct: expressed in transfected cells
# Sequence (P26433 29-831): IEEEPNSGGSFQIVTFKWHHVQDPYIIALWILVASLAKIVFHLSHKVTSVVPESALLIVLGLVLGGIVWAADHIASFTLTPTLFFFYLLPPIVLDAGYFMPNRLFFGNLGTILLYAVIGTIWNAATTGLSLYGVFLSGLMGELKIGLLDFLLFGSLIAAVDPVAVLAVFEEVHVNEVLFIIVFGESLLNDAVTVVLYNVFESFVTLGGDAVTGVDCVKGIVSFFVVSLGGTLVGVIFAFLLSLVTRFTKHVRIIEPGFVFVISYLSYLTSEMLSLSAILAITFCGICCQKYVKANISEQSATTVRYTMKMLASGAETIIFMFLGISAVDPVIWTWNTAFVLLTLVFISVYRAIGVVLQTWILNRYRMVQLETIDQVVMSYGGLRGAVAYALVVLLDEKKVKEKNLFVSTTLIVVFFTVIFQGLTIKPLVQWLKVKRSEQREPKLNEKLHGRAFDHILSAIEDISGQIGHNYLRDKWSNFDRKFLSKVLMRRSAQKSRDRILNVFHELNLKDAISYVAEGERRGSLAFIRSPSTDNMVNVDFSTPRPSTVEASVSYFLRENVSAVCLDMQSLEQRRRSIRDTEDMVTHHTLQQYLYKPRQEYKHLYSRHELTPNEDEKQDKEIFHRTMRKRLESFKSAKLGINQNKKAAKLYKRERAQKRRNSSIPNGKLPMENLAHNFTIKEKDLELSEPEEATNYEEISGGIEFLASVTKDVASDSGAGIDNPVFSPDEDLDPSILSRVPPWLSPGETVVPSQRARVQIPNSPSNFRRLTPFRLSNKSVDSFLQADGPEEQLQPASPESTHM
# procedure.details: recovery of intracellular pH (pHi) after acidification, BCECF fluorescence
# Type: cell-based
# assay.context: pH recovery recorded for three minutes with NHE3; bicarbonate-free conditions
Counter-ions that a name gives are not always drawn.
property.measured: log10 IC50 (log10 of the value in µM)
Scale: log10; quantity: IC50; unit before log: µM

GET /values?readout=log10 IC50&item= CC(=O)Nc1ccc(C2C[N+](C)(C)Cc3c(Cl)cc(Cl)cc32)cc1 (centres unmarked) [Example 3a]
-0.17

Which log10 IC50 value belongs to C[N+]1(C)Cc2c(Cl)cc(Cl)cc2C(c2ccc(S(N)(=O)=O)cc2)C1 (centres unmarked) [Example 2, Trifluoroacetate] ?
-0.05

Give its log10 IC50 value. Item: C[N+]1(C)Cc2c(Cl)cc(Cl)cc2C(c2ccc(N)cc2)C1 (centres unmarked) [Example 4, hydrochloride]
-1.52

Name the recorded log10 IC50 for CC(=O)Nc1ccc(C2C[N+](C)(C)Cc3c(Cl)cc(Cl)cc32)cc1 (single isomer, unassigned; (+)) [Example 3c] .
-0.37

Look up log10 IC50 for this compound: C[N+]1(C)Cc2c(Cl)cc(Cl)cc2C(c2ccccc2)C1 (centres unmarked) [Example 1, trifluoroacetate]
-0.64
